Quick note: these are pKi numbers for system: Carbonic anhydrase 5B, mitochondrial (Homo sapiens, UniProt Q9Y2D0)
Sequence (Q9Y2D0 whole entry): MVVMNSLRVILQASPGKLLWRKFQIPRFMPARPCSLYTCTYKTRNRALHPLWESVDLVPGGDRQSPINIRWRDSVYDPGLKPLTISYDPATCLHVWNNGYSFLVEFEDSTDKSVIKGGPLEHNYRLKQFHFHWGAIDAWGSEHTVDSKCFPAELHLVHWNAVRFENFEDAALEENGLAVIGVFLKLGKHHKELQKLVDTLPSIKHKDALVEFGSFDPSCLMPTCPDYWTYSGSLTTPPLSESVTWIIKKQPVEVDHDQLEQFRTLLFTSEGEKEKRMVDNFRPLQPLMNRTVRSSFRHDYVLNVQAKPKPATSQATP
// field semantics: pKi = negative decimal log of concentration (mol/L)

   query_smiles  endpoint_result
0    NCCCCNCCCN             5.84
1       NCCNCCN             4.96

Kindly consider the entry below.
Using the record for NCCNCCNCCN , state its measured pKi.
4.31

###

TESTED ON: Carbonic anhydrase 6 (Homo sapiens, UniProt P23280)
Sequence (P23280 whole entry): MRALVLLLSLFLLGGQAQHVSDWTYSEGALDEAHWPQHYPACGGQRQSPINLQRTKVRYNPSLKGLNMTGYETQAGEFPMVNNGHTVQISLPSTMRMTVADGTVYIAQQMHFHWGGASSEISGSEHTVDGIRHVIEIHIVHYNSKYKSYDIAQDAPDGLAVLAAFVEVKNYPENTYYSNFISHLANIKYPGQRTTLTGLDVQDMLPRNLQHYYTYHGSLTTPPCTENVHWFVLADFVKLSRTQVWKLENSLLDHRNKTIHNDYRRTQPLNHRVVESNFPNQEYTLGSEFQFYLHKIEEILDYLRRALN
ENDPOINT: pKi
Reminder that pKi is minus the log10 of a molar concentration.

In [3]: df
Out[3]:
                                   molecule                                 tested_on  endpoint_result
0  CC(C)(C)OC(=O)N(CCCCN(CCCNC(=O)C(F)(F)F)C(=O)OC(C)(C)C)CCCNC(=O)C(F)(F)F  Carbonic anhydrase 6 (Homo sapiens, UniProt P23280)             3.98
1                 NCCCNCCCCNCCCN [SPERMINE]  Carbonic anhydrase 6 (Homo sapiens, UniProt P23280)             6.00
2  CC(C)(C)OC(=O)N(CCCN)CCCCN(CCCN)C(=O)OC(C)(C)C  Carbonic anhydrase 6 (Homo sapiens, UniProt P23280)             3.94

Give me measured pKi, please, for this molecule: NCCNCCNCCN [TRIENTINE]
4.37

Please look at this molecule and report its pKi: CC(=O)NCCNc1cccc2ccccc12
3.96

Consider the molecule CN(C)CCN(C)CCN(C)CCN(C)C and give its recorded pKi.
6.11

###

// values below are pKi; system is Carbonic anhydrase 5B, mitochondrial (Homo sapiens, UniProt Q9Y2D0)
Keep in mind that pKi stands for -log10 of concentration in molar terms.

In [3]: df
Out[3]:
               query_smiles  endpoint  endpoint_result
0  CN(C)CCN(C)CCN(C)CCN(C)C       pKi             6.15

Tell us which pKi value is on record for NCCCNCCCCNCCCN
6.08

Name the recorded pKi of the molecule listed here: CC(C)(C)OC(=O)N(CCCN)CCCCN(CCCN)C(=O)OC(C)(C)C
3.97

Give a short answer stating reported pKi for CC(C)(C)OC(=O)N(CCCN(CCNC(=O)C(F)(F)F)C(=O)OC(C)(C)C)CCNC(=O)C(F)(F)F .
3.40

State, in one line, measured pKi of NCCCCCCN
6.24

Give pKi for CC(=O)NCCNc1cccc2ccccc12
3.97

###

Parameter 'readout' = pKi; parameter 'system' = Carbonic anhydrase 3 (Homo sapiens).
Sequence (P07451 whole entry): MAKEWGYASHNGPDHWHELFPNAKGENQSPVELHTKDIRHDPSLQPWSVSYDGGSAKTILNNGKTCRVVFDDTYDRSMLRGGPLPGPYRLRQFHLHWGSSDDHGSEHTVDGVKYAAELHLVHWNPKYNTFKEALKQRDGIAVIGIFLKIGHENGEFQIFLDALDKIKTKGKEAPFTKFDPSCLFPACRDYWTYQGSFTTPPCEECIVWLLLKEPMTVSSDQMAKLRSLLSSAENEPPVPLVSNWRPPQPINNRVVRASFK
Remember the convention: pKi equals -log10 of concentration in molar.

Specify pKi for NCCNCCCNCCN and stop.
4.20

Return the recorded pKi value; entry: NCCCCCN
6.30

Return value of pKi for input O=C(NCCCNCCCCNCCCNC(=O)C(F)(F)F)C(F)(F)F , no commentary.
4.94

Check the records and state pKi for CC(=O)NCCNc1cccc2ccccc12
3.89

Return pKi for the following compound: NCCCNCCCCNCCCN [SPERMINE]
3.78

Name the recorded pKi of the item CN(C)CCN(C)CCN(C)CCN(C)C in your answer.
6.28

Entry NCCNc1cccc2ccccc12 needs its pKi filled in; supply it.
6.38
